# Test target: MERTK (UniProt Q12866)
# Sequence (Q12866 whole entry, looked up): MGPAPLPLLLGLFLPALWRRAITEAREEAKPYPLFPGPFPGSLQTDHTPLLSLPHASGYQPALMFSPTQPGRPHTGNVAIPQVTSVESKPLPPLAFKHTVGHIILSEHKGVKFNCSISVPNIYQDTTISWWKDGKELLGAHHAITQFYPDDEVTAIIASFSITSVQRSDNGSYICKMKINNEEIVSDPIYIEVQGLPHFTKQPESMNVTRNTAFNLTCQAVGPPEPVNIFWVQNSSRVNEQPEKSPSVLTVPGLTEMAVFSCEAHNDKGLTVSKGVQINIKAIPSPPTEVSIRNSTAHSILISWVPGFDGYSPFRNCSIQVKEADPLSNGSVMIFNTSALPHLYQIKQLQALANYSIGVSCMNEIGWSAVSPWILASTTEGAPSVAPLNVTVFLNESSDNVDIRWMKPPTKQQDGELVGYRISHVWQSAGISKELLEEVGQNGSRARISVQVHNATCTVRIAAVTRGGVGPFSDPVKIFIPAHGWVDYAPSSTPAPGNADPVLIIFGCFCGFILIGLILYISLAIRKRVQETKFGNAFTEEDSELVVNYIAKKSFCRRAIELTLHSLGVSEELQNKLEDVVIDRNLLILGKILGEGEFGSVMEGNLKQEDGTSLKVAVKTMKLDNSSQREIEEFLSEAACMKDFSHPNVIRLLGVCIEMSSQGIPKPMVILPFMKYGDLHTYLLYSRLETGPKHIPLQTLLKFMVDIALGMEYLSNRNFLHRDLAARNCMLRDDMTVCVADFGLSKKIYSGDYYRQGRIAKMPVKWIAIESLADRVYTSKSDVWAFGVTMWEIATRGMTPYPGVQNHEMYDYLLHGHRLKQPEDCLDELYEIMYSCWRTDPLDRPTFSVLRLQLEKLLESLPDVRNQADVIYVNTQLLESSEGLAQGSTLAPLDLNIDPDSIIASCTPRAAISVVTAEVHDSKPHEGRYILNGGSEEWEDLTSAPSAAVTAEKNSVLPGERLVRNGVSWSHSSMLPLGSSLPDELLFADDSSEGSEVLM
# Test protocol: phosphorylation enrichment, bacterial display (enrichment ratio); higher = better substrate or ligand; peptides without Tyr show the background;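 also: 11-residue human phosphosite peptides and single-mutation variants displayed on the E. coli surface, counted by deep sequencing, each peptide's frequency after selection divided by its frequency in the unselected input library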;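 also: frequency after pTyr selection over input frequency; kinase dosed for 20-30% of maximal phosphorylation in three min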
Rule: 1 for phosphorylation enrichment not less than 0.7, 0 for anything less.

Entry NQDRTYYESVR [SPEN_Y632] : is its phosphorylation enrichment no less than 0.7? 1

Consider next the sequence KVNKIYHPDFI [LIG3_Y767_Y768H] in the same way. 0

Please give the result for YALAEYTEVKT [ALDH1A3_Y497] too. 0

Lookup GKPENYRRLDI [VHL_Y175_V170G] 0

Now this one: ISIFFYAKGQP [MPZ_Y82_H81Y_YF] 0

Let us now turn to NTVLGYFIGRI [GARS1_Y408] 0

Same lookup for DDERGYRRVRC [GIGYF2_Y268_S273C] , please. 0

Repeat with SYPHEYGSQEG [RBM10_Y48_R46H] 0

Please give the result for GFSDPYVKAFL [SYT3_Y470_S474F] too. 0

Then this sequence: AHPIIYDIIEA [PYKtide_D_2014] 1

Repeat for the following sequence: KGYRGYSYDDI [TMEM230_Y110] 0

Input LENSTYQYIHV [CRB1_Y760_R764H] 1

Thanks! And RVQQIYSDSDL [MIB1_Y376] ? 1

Next sequence: LKEIRYPPFTD [ALDH3B2_Y362_H361R_YF] 1

Follow-up item: ALIKAYDKAVA [SMN1_Y43] 0

Another sequence to check: AKIDGYIISYR 0

----------
Kindly state phosphorylation enrichment for each of the entries shown.
# System: c-Src
# Test protocol: phosphorylation enrichment, bacterial display (enrichment ratio); higher = better substrate or ligand; peptides without Tyr show the background
Please reply with the number alone, leaving off any unit.

Please give the measured phosphorylation enrichment for this sequence: CVVVPYEPPEV [TP53_Y220_S215C] 0.557

What do you have for MGGSLYFSYPD [HIKESHI_Y55_V54L] ? 4.41

# iterate: PGAGHYEDTIL [ALK_Y1604] 0.391

Queued: RVDRDYVLKSA [HTATIP2_Y111] 0.961

One more sequence: SELVRYDARVH [MET_Y971] 0.433

Subsequent entry: KRLYAYKMLMA [TMC2_Y209_Q205R] 0.399

Next: YIPFRYPKEFQ [IDS_Y234_H229Y] 0.768

And PFQGAYLKINK [MYO1B_Y967_E969K] ? 0.319

Same again, this time with KFVVVYFREID [IL17RB_Y447_YF] 0.408

Ok, now RESYKYFPSSL [CXXC1_Y218] 0.861

Then this sequence: RALLNYIASKF [GSTA3_Y74_I71L_YF] 0.587

And the next one, FDSPFYQDSLP [TSC1_Y508_R509Q] ? 0.473

Request: GFSDPYVKAFL [SYT3_Y470_S474F] 0.497

Same thing, different sequence: AARVSYRLASG [DCHS1_Y1582] 0.382

Please answer likewise for TYGVLYKARNK [CDK2_Y19_V18L] 3.29

Also need HMEAVYIDIAD [PITPNA_Y140_V136M] , thanks. 3.62

Follow-up item: LQPNNCQFCGG [CSF1R_Y969_Y969C] 0.647

Further, for YAGRDYSLDEF [MYOF_Y1705_G1701A] ? 0.878

Repeat with KSELAYEIFDK [MYOM2_Y1024] 4.27

Also KFWREYILSLE [GPC3_Y299_YF] , if possible. 0.588

And what about the sequence QADIIYVNTQL [MERTK_Y872_V870I] ? 1.24

Here is the next sequence: GLSAPYVKIHL [SYT2_Y309_D307A] 0.383

What would you report for RHSGSYFVTSV [APC_Y2838_L2839F] ? 0.785

Request: DPAFGYEDFTR [SESN2_Y323_T320A] 0.59

Please do the same for SSSNPYSTVTM [ACTN2_Y599] as well. 1.9

And what about the sequence LSGVIYVILRK [PMP22_Y153] ? 0.484

And the next one, KTNVSYFGALD [CACNB4_Y103_C104F] ? 0.438

Proceed to EAVSIYQFFGQ [CBLC_Y402_H405Y_YF] 6.58

Then what about the sequence HTLQLYRCREE [ALPK3_Y342] ? 0.603

Now the same for PGQRVYVVAES [SHH_Y316_R321S] 0.546

Next up: RELGEYALAEF [ALDH1A3_Y492_YF] 0.665

Ok, now SVTCTYSPAVN [TP53_Y126_L130V] 0.662

FSEVRYMKEPY [HIPK4_Y170_V171M] ? 0.432

Note, next up: YALAEYTEVKT [ALDH1A3_Y497] 0.658

Request: QLRPGYFPIPV [BAG3_Y93_I94F] 0.423

Consider next the sequence GITVTYTIPKK [UBA5_Y372_A371T] in the same way. 0.4

Do the same for NGLVAYKDGKL [PMM2_Y76] please 0.423

One more sequence: FRQNGYIPGSN [PCDHGA1_Y895_V894G_YF] 0.435

// query: KRGASYILKLA [SERPINB1_Y84] 0.421

Would you mind doing LGRKLYSIATP [ABHD12_Y345_A349T] as well? 0.698

Consider next the sequence SDLTDYLMKIL [ACTA1_Y190_R185S] in the same way. 0.507

Same read-out for DLKFHYDNTAG [KDR_Y1214_P1210L] ? 0.426

Next sequence up: GGFTRYCDGKK [PROS1_Y266_C265R_YF] 0.423

Next sequence: CPFNLYAEQFS [HGD_Y40_L44F_YF] 1.49

Another: KASGKYFAMKI [AKT3_Y173_YF] 0.351
